Tested on: SF-295 CNS
Assay: NCI-60 one-dose screen, 48 h
Settings: 10 µM
This is part of a sample that, as a whole, favours compounds with a hit. Of some 83,000 tested, about 20% had one in any assay. Calls of active or inactive are those of the source. Rule for the calls: active = growth percent below 10; inactive = the rest.
Result category, one only: T (active), F (inactive)

Observe how each entry below is paired with its result.
molecule: S=C1CCCCCN1
group: F
--
molecule: CCN(CC)C(=O)/C=C(/C)c1ccccc1
group: F
--
molecule: CC(=O)c1ccc2c(ccc3ccccc32)c1
group: F
--
molecule: CCCCCCCCO
group: F

Req: Assay result, entry CC(=O)c1ccc(C(C)(C)C)cc1 — outcome?
Resp: F

Req: Assay result, entry OCCN1CCOCC1 — outcome?
Resp: F

Req: Assay result, entry O=C(O)C(O)c1ccccc1 (stereo unspecified) — outcome?
Resp: F

Req: Assay result, entry Cc1cc2nc(CC(=O)c3ccccc3)c(=O)[nH]c2cc1C — outcome?
Resp: F

====

Test system: UACC-257 melanoma
Assay: NCI-60 one-dose screen, 48 h (100 = growth as untreated, 0 = no growth, -100 = all killed)
Conditions: 10 µM
Compounds without any hit were thinned out: in the full panel of roughly 83,000, 20% have a hit.
The label is rule met for growth below 90% and rule not met for growth equal to or exceeding 90%.

Observe how each entry below is paired with its result.
compound: O=C(CCl)Nc1ccc2c(c1)C(=O)c1ccc(NC(=O)CCl)cc1C2=O
group: rule met

compound: COS(=O)(=O)c1ccc(Br)cc1
group: rule not met

Req: Lab log: compare recorded growth with 90%; is it strictly lower for Cc1cccc(C(=O)N(C(C)C)C(C)C)c1 ?
Resp: rule met

Req: Lab log: compare recorded growth with 90%; is it strictly lower for CCOC(=O)C1=C(C)NC(=O)NC1c1cccs1 (stereo not drawn) ?
Resp: rule not met

Req: Lab log: compare recorded growth with 90%; is it strictly lower for Cn1cnc2nc(Cl)nc(Cl)c21 ?
Resp: rule met

====

Answer each item with its documented growth.
Test system: HOP-62 NSCLC
Experiment: NCI-60 one-dose screen, 48 h (100 = growth as untreated, 0 = no growth, -100 = all killed)
Conditions: 10 µM
This is part of a sample that, as a whole, favours compounds with a hit. Of some 83,000 tested, about 20% had one in any assay.
Numbers only, in %.

compound: COCCCNC(=O)c1nnn2c1nc(N)c1cc(Cl)ccc12
measured value: 80.4

compound: Oc1ccccc1O
measured value: 95.9

compound: O=C(NCc1ccco1)Nc1c(Cl)cc(Cl)cc1Cl
measured value: 97.3

Could you tell me growth for each of these compounds? They are listed below.
1. CCCCNC(=O)C(=O)NCCCC
2. C=CC(=O)OCCCCCCCC
3. CCN(CC)c1ccc2nc3ccc(=[N+](CC)CC)cc-3oc2c1
4. COc1ccc(-c2cc(-c3cc(-c4ccc(OC)cc4)nc(N)n3)nc(N)n2)cc1

Resp:
1: 108; 2: 98.4; 3: 1.25; 4: 94.7

====

System: HCT-15 colon
Test: NCI-60 one-dose screen, 48 h (100 = growth as untreated, 0 = no growth, -100 = all killed)
Conditions: 10 µM
About 83,000 compounds went through this panel and 20% of them were active in at least one assay; those are over-represented in the sample as a whole.
readout: growth (%)
Numbers only, in %.

compound: C=CCc1cc(C(C)=O)cc(OC)c1O
readout: growth
measured value: 119
//
compound: CCN=c1cc2sc3cc(NCC)c(C)cc3nc-2cc1C
readout: growth
measured value: 8.95
//
compound: O=C(O)CCCC(=O)O
readout: growth
measured value: 101

Could you tell me growth for each of these compounds? They are listed below.
1. CCOC(=O)c1ccc(Nc2sc(C(=O)c3cccc([N+](=O)[O-])c3)c(N)c2C#N)cc1
2. O=c1c2ccccc2c(Br)c(Br)c2ccccc12
3. Nc1nc(OCc2ccccc2)c2[nH]cnc2n1
4. S=C(Nc1ccccc1)N1CCCCC1

Resp:
1. 32.3
2. 98
3. 63.7
4. 105
